Source: BindingDB's records for doi:10.1021/jm000497n

Biological target: Chymotrypsin A (Bos taurus)
Experiment: In vitro inhibitory activity was determined against bovine pancreas chymotrypsin
observation_type: pKi
Answers are plain numbers, as −log10 of the molar value.

compound: Cc1cccc(-c2ncc(N)c(=O)n2CC(=O)NC(Cc2ccccc2)C(=O)C(F)(F)C(=O)NCc2ccccc2)c1 (centres undefined)
pKi: 5.72
--
compound: Nc1cnc(-c2ccc(F)cc2)n(CC(=O)NC(Cc2ccccc2)C(=O)C(F)(F)C(=O)NCc2ccccc2)c1=O (centres undefined)
pKi: 5.48
--
compound: Cc1cccc(-c2ncc(N)c(=O)n2CC(=O)NC(Cc2ccccc2)C(=O)C(F)(F)C(=O)NCC(N)=O)c1 (centres undefined)
pKi: 5.84

Next compound, pKi to be filled in.
In one line, give reported pKi of the entry Cc1cccc(-c2ncc(N)c(=O)n2CC(=O)NC(Cc2ccccc2)C(=O)C(F)(F)C(=O)NCCC(=O)O)c1 (centres undefined) .
5.84
